Reported EC50 by item:
- target or system: Vitamin D3 receptor (Homo sapiens, UniProt P11473)
- Sequence (P11473 whole entry): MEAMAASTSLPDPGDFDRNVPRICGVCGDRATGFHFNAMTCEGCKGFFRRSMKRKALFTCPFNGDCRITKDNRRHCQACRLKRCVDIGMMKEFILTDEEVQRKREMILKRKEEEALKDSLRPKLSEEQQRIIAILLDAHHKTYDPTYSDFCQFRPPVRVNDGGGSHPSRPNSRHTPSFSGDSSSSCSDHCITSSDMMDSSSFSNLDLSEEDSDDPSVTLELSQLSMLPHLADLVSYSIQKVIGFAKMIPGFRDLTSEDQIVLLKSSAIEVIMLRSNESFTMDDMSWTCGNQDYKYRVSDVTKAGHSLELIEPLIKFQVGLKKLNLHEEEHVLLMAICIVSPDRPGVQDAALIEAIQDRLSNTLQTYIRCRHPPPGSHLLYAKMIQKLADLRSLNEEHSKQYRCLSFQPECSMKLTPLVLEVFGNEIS
- procedure details: Agonist activity at VDR in human MCF7 cells assessed as increase in transcription of CYP24A1 gene after 24 hrs by luciferase reporter gene assay

// below: answered compounds
compound string	EC50
C=C1/C(=C\C=C(/CCCCCCC)c2cccc(CCCCCC(C)(C)O)c2)C[C@@H](O)C[C@@H]1O	29 to 40 nM
C=C1/C(=C\C=C(/CCCC)c2cccc(CCCCCC(C)(C)O)c2)C[C@@H](O)C[C@@H]1O	9 to 11 nM
C=C1/C(=C\C=C(/CCCCCC)c2cccc(CCCCCC(C)(C)O)c2)C[C@@H](O)C[C@@H]1O	10 to 13 nM
C=C1/C(=C\C=C(/CC)c2cccc(CCCCCC(C)(C)O)c2)C[C@@H](O)C[C@@H]1O	5.6 to 6.2 nM

Let us examine a further case.
Problem: // query EC50 value for entry C=C1/C(=C\C=C(/CCC)c2cccc(CCCCCC(C)(C)O)c2)C[C@@H](O)C[C@@H]1O
Result: 8.6 to 9.9 nM
